system: Escherichia coli; experiment: Antimicrobial activity against Escherichia coli expressing beta-lactamase KPC-2 by CLSI broth microdilution method; format: functional
Threshold 2 µg/mL: MIC strictly smaller gives fulfilled, otherwise not fulfilled.

Completed entries (count: 8):
CCN1CCN(C(=O)N[C@@H](C(=O)N[C@@H]2C(=O)N3[C@@H]2SC(C)(C)[C@@H]3C(=O)O)c2ccccc2)C(=O)C1=O :: not fulfilled
CN(C[C@@H]1[C@H](NC(=O)/C(=N\OC(C)(C)C(=O)O)c2csc(N)n2)C(=O)N1S(=O)(=O)O)C(=O)CN (stereo in doubt) :: not fulfilled
CC(C)(O/N=C(\C(=O)N[C@@H]1C(=O)N(S(=O)(=O)O)[C@@H]1Cn1cc(CO)nn1)c1csc(N)n1)C(=O)O (stereo in doubt) :: not fulfilled
CC(C)(O/N=C(\C(=O)N[C@@H]1C(=O)N(S(=O)(=O)O)[C@@H]1CNC(=O)CN)c1csc(N)n1)C(=O)O (stereo in doubt) :: not fulfilled
CC(C)(O/N=C(\C(=O)N[C@@H]1C(=O)N(S(=O)(=O)O)[C@@H]1CN1C[C@H](CO)OC1=O)c1csc(N)n1)C(=O)O (stereo in doubt) :: not fulfilled
N=C(NC1CCNCC1)c1ccc(OC[C@H](O/N=C(\C(=O)N[C@@H]2C(=O)N(S(=O)(=O)O)[C@@H]2Cn2cncn2)c2csc(N)n2)C(=O)O)cc1 (stereo in doubt) :: fulfilled
CC(C)(O/N=C(\C(=O)N[C@@H]1C(=O)N(S(=O)(=O)O)[C@@H]1Cn1cc(CNC(=N)N)nn1)c1csc(N)n1)C(=O)O (stereo in doubt) :: fulfilled
CC1(C)[C@H](NC(=O)/C(=N\OCc2cc(=O)c(O)cn2O)c2csc(N)n2)C(=O)N1OS(=O)(=O)O (stereo in doubt) :: fulfilled

Confirm or reject: MIC of CC(C)(O/N=C(\C(=O)N[C@@H]1C(=O)N(S(=O)(=O)O)[C@@H]1CN1C[C@H](CNC(=N)N)OC1=O)c1csc(N)n1)C(=O)O (stereo in doubt) lies strictly below 2 µg/mL
not fulfilled

Lab note: MIC threshold 2 µg/mL. Does this compound come in strictly under it? CC(C)(O/N=C(\C(=O)N[C@@H]1C(=O)N(S(=O)(=O)O)[C@@H]1CN1CCCCC1=O)c1csc(N)n1)C(=O)O (stereo in doubt)
not fulfilled

Criterion: MIC strictly below 2 µg/mL. Is it met by Nc1nc(/C(=N/OC2(C(=O)O)CCC2)C(=O)N[C@@H]2C(=O)N(S(=O)(=O)O)[C@@H]2Cn2cncn2)cs1 (stereo in doubt) ?
fulfilled

* * *

assay: Chemical stability in pH 7.4 potassium phosphate buffer assessed as half life for compound hydrolysis at 37 degC by UPLC and mass spectrometry; assay type: physicochemical
readout.kind: half-life (h)
Numbers only, in h.

C[C@@H](O)[C@H]1C(=O)N2C(C(=O)O)=C(SCCN=CN)C[C@H]12 [IMIPENEM ANHYDROUS] :: 46
CN(C[C@@H]1[C@H](NC(=O)/C(=N\OC(C)(C)C(=O)O)c2csc(N)n2)C(=O)N1S(=O)(=O)O)C(=O)CN (stereo in doubt) :: 212

Please look at the following compound next.
Tell me the measured half-life of CC(C)(O/N=C(\C(=O)N[C@@H]1C(=O)N(S(=O)(=O)O)[C@@H]1CNC(=O)CN)c1csc(N)n1)C(=O)O (stereo in doubt) , please.
149

* * *

test: Chemical stability in pH 7.4 potassium phosphate buffer assessed as half life for compound hydrolysis at 37 degC by UPLC and mass spectrometry; type: physicochemical
readout.kind: half-life

Observe how each entry below is paired with its result.
CC(C)(O/N=C(\C(=O)N[C@@H]1C(=O)N(S(=O)(=O)O)[C@@H]1CN1C[C@@H](CO)OC1=O)c1csc(N)n1)C(=O)O (stereo in doubt) :: > 37 h
CC(C)(O/N=C(\C(=O)N[C@@H]1C(=O)N(S(=O)(=O)O)[C@@H]1Cn1cc(CO)nn1)c1csc(N)n1)C(=O)O (stereo in doubt) :: > 37 h
CC(C)(O/N=C(\C(=O)N[C@@H]1C(=O)N(S(=O)(=O)O)[C@@H]1CN1CCCC1=O)c1csc(N)n1)C(=O)O (stereo in doubt) :: > 1000 h
CC(C)(O/N=C(\C(=O)N[C@@H]1C(=O)N(S(=O)(=O)O)[C@@H]1Cn1cc(CN)nn1)c1csc(N)n1)C(=O)O (stereo in doubt) :: > 37 h
C[C@@H]1CN(C[C@@H]2[C@H](NC(=O)/C(=N\OC(C)(C)C(=O)O)c3csc(N)n3)C(=O)N2S(=O)(=O)O)C(=O)O1 (stereo in doubt) :: > 37 h

Name the recorded half-life for CC(C)(O/N=C(\C(=O)N[C@@H]1C(=O)N(S(=O)(=O)O)[C@@H]1CN1CCNC1=O)c1csc(N)n1)C(=O)O (stereo in doubt) .
> 1000 h

* * *

Give MIC for every item shown.
system: Escherichia coli; assay: microbe, parasite or virus in culture

CC(C)(O/N=C(\C(=O)N[C@@H]1C(=O)N(S(=O)(=O)O)[C@@H]1Cn1ccc(N)n1)c1csc(N)n1)C(=O)O (stereo in doubt) :: > 64 µg/mL
CO/N=C(\C(=O)N[C@@H]1C(=O)N2C(C(=O)[O-])=C(C[N+]3(C)CCCC3)CS[C@H]12)c1csc(N)n1 :: ≤ 0.03 µg/mL

Under Escherichia coli: MIC value of C[C@@H](O)[C@H]1C(=O)N2C(C(=O)O)=C(S[C@@H]3CN[C@H](C(=O)N(C)C)C3)[C@H](C)[C@H]12 ?
≤ 0.015 µg/mL

* * *

tested on: Escherichia coli; experiment: Antimicrobial activity against Escherichia coli expressing beta-lactamase KPC-2 by CLSI broth microdilution method; assay type: functional
readout.kind: MIC (µg/mL)
One number for each entry, in µg/mL.

CC(C)(O/N=C(\C(=O)N[C@@H]1C(=O)N(S(=O)(=O)O)[C@@H]1Cn1cncn1)c1nsc(N)n1)C(=O)O :: 2
C[C@@H](O)[C@H]1C(=O)N2C(C(=O)O)=C(S[C@@H]3CN[C@H](C(=O)N(C)C)C3)[C@H](C)[C@H]12 [MEROPENEM] :: 2

# context switch: different compound, same MIC
# get_value(readout='MIC', item= CC(C)(O/N=C(\C(=O)N[C@@H]1C(=O)N(S(=O)(=O)O)[C@@H]1Cn1cc(NC(=O)C[N+](C)(C)C)nn1)c1csc(N)n1)C(=O)O )
2

* * *

Exercise: for every item that follows, state its recorded half-life.
assay: Chemical stability in pH 7.4 potassium phosphate buffer assessed as half life for compound hydrolysis at 37 degC by UPLC and mass spectrometry; format: physicochemical

Below, 3 molecules whose answers are already recorded.
CC(C)(O/N=C(\C(=O)N[C@@H]1C(=O)N(S(=O)(=O)O)[C@@H]1CN1CCC1=O)c1csc(N)n1)C(=O)O (stereo in doubt) :: > 1000 h
CC(C)(O/N=C(\C(=O)N[C@@H]1C(=O)N(S(=O)(=O)O)[C@@H]1CN1C[C@H](CNC(=N)N)OC1=O)c1csc(N)n1)C(=O)O (stereo in doubt) :: > 37 h
CC(C)(O/N=C(\C(=O)N[C@@H]1C(=O)N(S(=O)(=O)O)[C@@H]1CN1C[C@H](CN)OC1=O)c1csc(N)n1)C(=O)O (stereo in doubt) :: > 37 h

Continue with the molecule presented below.
Entry CC(C)(O/N=C(\C(=O)N[C@@H]1C(=O)N(S(=O)(=O)O)[C@@H]1Cn1cc(CNC(=N)N)nn1)c1csc(N)n1)C(=O)O (stereo in doubt) : reported half-life = ?
> 37 h
